Data provenance is patent US10767212B2.

Molecular target: UniProt D3Z7P3
Sequence (D3Z7P3 73-603 isoform D3Z7P3-2): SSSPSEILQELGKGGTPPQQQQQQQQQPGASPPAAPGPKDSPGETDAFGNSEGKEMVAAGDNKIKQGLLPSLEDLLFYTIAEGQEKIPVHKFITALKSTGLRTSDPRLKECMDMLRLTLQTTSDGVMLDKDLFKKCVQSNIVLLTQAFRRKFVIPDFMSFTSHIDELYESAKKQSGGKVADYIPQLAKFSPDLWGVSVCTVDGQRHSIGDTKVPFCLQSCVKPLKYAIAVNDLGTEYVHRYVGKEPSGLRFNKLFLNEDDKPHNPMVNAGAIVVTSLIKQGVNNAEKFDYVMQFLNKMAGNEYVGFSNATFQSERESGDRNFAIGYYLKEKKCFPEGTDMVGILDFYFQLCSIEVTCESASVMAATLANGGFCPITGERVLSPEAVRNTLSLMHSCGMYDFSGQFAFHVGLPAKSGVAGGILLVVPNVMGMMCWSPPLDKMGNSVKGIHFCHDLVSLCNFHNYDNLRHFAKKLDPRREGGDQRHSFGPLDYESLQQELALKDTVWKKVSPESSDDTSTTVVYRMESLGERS
Conditions: read-out: KD values from glutaminase activity with increasing concentrations of anion; 50 nM WT GAC; allosteric activation
Task for the reader: assign each of the following molecules its reported pKd.
Numbers only, as −log10 of the molar value.

[
  {
    "molecule": "O=S(=O)(O)O [sulfate]",
    "pKd": 1.44
  }
]

From here, focus on the item given below.
For the molecule shown here, O=P(O)(O)O [inorganic phosphate] , give the reported pKd.
1.69
